Tested on: IGROV-1
Test: NCI tumour cell line growth inhibition, 48 h
Active and inactive are the calls of the source. No stated cut-off is given here; in the data, active = GI50 up to about 1.1 µM and inactive = higher.
observed.property: GI50

Query GI50 for O=C(OCc1ccccc1)c1nc2ccccc2n1S(=O)(=O)c1ccccc1
> 100 µM (inactive)

Report GI50 for NCCCCCS(=O)(=O)O
> 100 µM (inactive)

Please report GI50 for the following molecule: CC1(C)OC2COC(c3n[nH]c4c(=O)[nH]c(=O)[nH]c34)C2O1 (stereo unspecified)
> 100 µM (inactive)

Report GI50 for COc1ccc(/C=C/c2onc3c(=O)n(C)nc(-c4ccccc4)c23)cc1
> 100 µM (inactive)

Identify GI50 associated with the molecule COc1cccc2c1CCc1ccccc1CC2=O
> 100 µM (inactive)

Note: attention shifts to another entry.
Provide one value: measured GI50 of C(/c1ccco1)=c1/nc(-c2ccccc2)n2c1nc1ccccc12
11.3 µM (inactive)

* * *

Tested on: U-251
Assay: NCI tumour cell line growth inhibition, 48 h
Calls of active or inactive are those of the source. No stated cut-off is given here; in the data, active = GI50 up to about 1.1 µM and inactive = higher.
Could you please pick one outcome from this set? active, inactive

Solved cases (5 shown):
Name the outcome recorded for O=C1CC(c2ccccc2)C2(C(=O)NC(=S)NC2=O)C(c2ccccc2)C1 (stereo not given) in the assay.
inactive

Recorded test call requested for C#CC1(OC(C)=O)CCC2C3CC=C4C=C(OC(C)=O)CCC4(C)C3CCC21C (stereo not given)
inactive

For CC(=O)OC1=NN=C2COC(c3ccccc3OC(C)=O)=NN2C1 , which call appears in the assay record?
inactive

Record lookup: outcome of this test for Cc1cc(/N=N/c2c(O)ccc3ccccc23)ccc1/N=N/c1cccc([N+](C)(C)C)c1 ?
inactive

In this assay, the call recorded for Fc1nc(F)nc(-c2c3ccccc3c3n2CCS3)n1 was what?
inactive

---
Returns: the outcome recorded for Cc1cn(C2CCC(CO)(CF)O2)c(=O)[nH]c1=O (stereo not given) in this assay.
inactive

* * *

Test system: SF-539
Assay: NCI tumour cell line growth inhibition, 48 h
The source made the active and inactive calls. No stated cut-off is given here; in the data, active = GI50 up to about 1.1 µM and inactive = higher.
Form entry, call: pick from active, inactive

Recorded results for 4 compounds are shown here.
Just curious, what result did OC1(c2ccccc2)CC2CCC(C1)N2CCCC(O)(c1ccccc1)c1ccccc1 (stereo not given) get here?
inactive

Status in this test for COc1ccccc1NC(=O)C1=C(C)NC(C)=C(C(=O)Nc2ccccc2OC)C1c1ccc(C)cc1 ?
inactive

Fill in: this test's call for Cc1nn(-c2ccccc2)c2c1CC(=O)Nc1ccccc1-2 is ___
active

What was the test verdict on CCOC(=O)CC[C@H](N)C(=O)N[C@H](Cc1ccc(N(CCCl)CCCl)cc1)C(=O)OCC ?
inactive

***
GET /call?item= Cc1c(C#N)c(=O)[nH]c(=O)n1CCN1CCN(C(=O)NCCCCCCNC(=O)N2CCN(CCn3c(C)c(C#N)c(=O)[nH]c3=O)CC2)CC1 returns the recorded outcome of this test.
inactive

* * *

Test system: HOP-92
Test: NCI tumour cell line growth inhibition, 48 h
Activity calls are given as the source filed them. Cut-off read from the data, not from the text of the source: active = GI50 up to about 1.1 µM and inactive = higher.
observed.property: GI50

Return GI50 for the following compound: NC(CSCc1ccccc1)C(=O)O (configuration not stated)
> 100 µM (inactive)

Give a short answer stating reported GI50 for CC#CC#C/C=C1\C=CC2(OC=CC2O)O1 (configuration not stated) .
7.13 µM (inactive)

* * *

List of GI50 values.
System: OVCAR-3
Experiment: NCI tumour cell line growth inhibition, 48 h
Calls of active or inactive are those of the source. Rule as the data show it: active = GI50 up to about 1.1 µM and inactive = higher.

Indicate the recorded GI50 value for this molecule: CC1(C)OC2COC(c3n[nH]c4c(=O)[nH]c(=O)[nH]c34)C2O1 (stereo unspecified)
> 100 µM (inactive)

Kindly indicate its recorded GI50. Item: COc1ccc(C2c3cc4c(cc3OC(NNC(N)=O)C2C)OCO4)cc1 (stereo unspecified)
3.85 µM (inactive)

Give GI50 for the following molecule: COc1ccc2[nH]c3c(c2c1)CCN(C)CC3
> 100 µM (inactive)

Return GI50 (reported value) for this molecule: COc1cc(Cl)cc(O)c(=O)c1OC
20.1 µM (inactive)

In one line, give reported GI50 of the entry Cn1c2ccccc2c(=O)c2c([N+](=O)[O-])ccc(NCCN)c21 .
13.8 µM (inactive)

Please look at this molecule and report its GI50: C=C(C)CC1(O[Si](C)(C)C)C(=O)C(OCC)=C1OCC (stereo unspecified)
> 100 µM (inactive)

* * *

Tested on: SF-539
Assay: NCI tumour cell line growth inhibition, 48 h
Activity calls are given as the source filed them. Rule as the data show it: active = GI50 up to about 1.1 µM and inactive = higher.
observed.property: GI50

Look up and state reported GI50 for COc1ccc2c(c1)CCN1CCc3ccccc3CC21 (stereo unspecified)
36.6 µM (inactive)

Read the entry O=C1c2sccc2C(=O)c2c(CO)csc21 and write its reported GI50.
3.65 µM (inactive)

Give the value of GI50 reported for the following: CC1CC(=O)c2c(ccc3c2C(=O)c2cccc(O)c2C3=O)C1 (stereo unspecified)
14.8 µM (inactive)

In one line, give reported GI50 of the entry O=c1[nH]c(Br)nc2c(Br)c[nH]c12 .
> 100 µM (inactive)

In one line, give reported GI50 of the entry COc1cc(Cn2c3c(c4c(CN(C)C)c(O)ccc42)C(=O)c2ccccc2C3=O)cc(OC)c1 .
16.3 µM (inactive)

From here, focus on the item given below.
Report GI50 for O=c1[nH]n(Cc2ccccc2Cl)c2ccccc12
> 100 µM (inactive)

* * *

System: HT-29
Assay: NCI tumour cell line growth inhibition, 48 h
The source made the active and inactive calls. Rule as the data show it: active = GI50 up to about 1.1 µM and inactive = higher.
Examples of compounds with documented GI50 follow.

Worked cases, GI50 given:
Provide measured GI50 value, entry: CCCC(=O)Nc1cc(/C=C/C(=O)N2CC(CCl)c3c2cc([N+](=O)[O-])c2ccccc32)n(C)c1 (stereo not given)
> 100 µM (inactive)

For CC1CC(=O)c2c(ccc3c2C(=O)c2cccc(O)c2C3=O)C1 (stereo not given) , write its GI50.
3.74 µM (inactive)

Consider the compound O=C1c2ccccc2C(=O)c2c1ccc1conc21 . State its measured GI50.
4.37 µM (inactive)

More entries:
Tell me GI50 reported for O=C(Nc1ccc(F)cc1)C(=O)C(C1OC(=O)c2ccccc21)[N+](=O)[O-] (stereo not given)
> 100 µM (inactive)

Input Cc1ncc([N+](=O)[O-])n1CCNC(=O)CCCCn1ccnc1[N+](=O)[O-] , output reported GI50.
> 100 µM (inactive)

* * *

Test system: U-251
Experiment: NCI tumour cell line growth inhibition, 48 h
Active and inactive are the calls of the source. No stated cut-off is given here; in the data, active = GI50 up to about 1.1 µM and inactive = higher.
// allowed return values: active, inactive

Please review the entries below; each comes with its answer.
What did the test return for CC(C)c1ccccc1SC1CC(=O)CC(Sc2ccccc2C(C)C)C12O[C@H](c1ccccc1)[C@@H](c1ccccc1)O2 (stereo partly drawn) ?
inactive

Which outcome was entered for the molecule N[C@H](COCc1ccccc1)c1ccccc1 in this test?
inactive

Per the assay record, what outcome was assigned to C1OC1C1CO1 (stereo not drawn) ?
inactive

What outcome does the record of this test show for CC1(C)OC2COC(c3n[nH]c4c(=O)[nH]c(=O)[nH]c34)C2O1 (stereo not drawn) ?
inactive

Recorded test outcome, item CCS(CC)(CC)CC1CCCC2=CCC(P(=O)(c3ccccc3)c3ccccc3)CC21 (stereo not drawn)
inactive

Test call for this molecule, please: OC1(c2ccccc2)CC2CCC(C1)N2CCCC(O)(c1ccccc1)c1ccccc1 (stereo not drawn)
inactive

New cases:
Write down the call the test reported for this molecule. Item: CNC(=S)N/N=C(/C)CCC/C(C)=N/NC(=S)NC
inactive

Dear colleague, could you share the recorded outcome for COc1ccc2nccc(C3=CCC4CCN(C(=O)c5ccccc5)C3C4)c2c1 (stereo not drawn) when you have a moment?
inactive

Tell me the recorded outcome of this test for CCCCCCc1nn2c(-c3ccc(C)cc3)nnc2s1 .
inactive

Which result was noted for this molecule in the test: CC1C(OC2O[C@@H]3O[C@@]4(C)CC[C@H]5[C@H](C)CC[C@@H](C2C)[C@@]35O4)O[C@@H]2O[C@@]3(C)CC[C@H]4[C@H](C)CC[C@@H]1[C@@]24O3 (stereo partly drawn)
inactive

Entry CN1C2=C(CC3=C1CC(C)(C)CC3=O)C(=O)CC(C)(C)C2 : call = ?
inactive

I'd appreciate the recorded outcome for CCOC(=O)CCCn1cc(C(=O)OC)nn1 from this test.
inactive

Recorded call for CC(C)(C=O)CC(C#N)/C(=N\NC(N)=O)C(=O)Nc1ccccc1C(N)=O (stereo not drawn) ?
inactive

Hello, I am checking results. What call was entered for COC(=O)C1CC(c2ccc(Cl)cc2)=NO1 (stereo not drawn) ?
inactive

Please state the recorded outcome for this molecule: CCCCCCCCCCCCCCCCP(=O)(O)OCC(N)C(=O)O (stereo not drawn)
inactive

Dear all, I need the recorded test outcome for CCCCCOC(=O)C(=O)Nc1[nH]nnc1C(N)=O , thank you.
inactive

* * *

System: HCT-116
Experiment: NCI tumour cell line growth inhibition, 48 h
Active and inactive are the calls of the source. Rule as the data show it: active = GI50 up to about 1.1 µM and inactive = higher.
Return exactly one item of active, inactive

Known results for molecules:
Tell me the recorded outcome of this test for COC(=O)C1(C(=O)OC)CC(=O)c2cc3c(cc2-c2c(cc(OC)c(OC)c2OC)C1)OCO3 .
inactive

What call does the record list for CC#CC#C/C=C1\C=CC2(OC=CC2O)O1 (stereo not given) ?
inactive

Called result for CC12CCC(C(=O)O1)C(C)(C)O2 (stereo not given)
inactive

***
Identify the outcome logged in this assay for the molecule shown: C1=CC=C2NCCCCCCC/N=C3/C=CC=CC=C3NCCCCCCC/N=C\2C=C1
inactive

# fetch the recorded call for CC(C)(C)c1cc(C2NC(=O)NC2=O)cc(C(C)(C)C)c1O (stereo not given) here
inactive

// param item: CCCNCC(=O)O[C@]1(CC)C(=O)OCc2c1cc1n(c2=O)Cc2cc3ccccc3nc2-1 ; yields the recorded call
active

For this molecule, state the assay outcome: CC(C)(C)CNC(=O)NCn1cc(-c2ccccc2)nn1
inactive

What is the recorded call for this molecule in the test? CCC1CN2CCc3cc(OC)c(OC)cc3C2CC1CC1c2cc(OC)c(OC)cc2CCN1C(=O)C(N)Cc1ccccc1.[O-][Cl+3]([O-])([O-])O (stereo not given)
active

Tell me the recorded outcome of this test for Cc1c2oc(=O)c(C#N)cc2c2ccccn12 .
inactive

Identify the outcome logged in this assay for the molecule shown: COc1cc(C2c3cc4c(cc3OC(N3CCOCC3)C2C)OCO4)ccc1O (stereo not given)
inactive
